- Test system: IL-8
- PROCEDURE DETAILS: In vitro chemotaxis, inhibition v IL-8
- Type: cell-based, human
- Set-up: concentration or dose not given beside the values
Bridge positions count the residues as written; N and C are the ends. Square brackets hold non-standard residues; d marks the D form. Peptide text beside a SMILES is read from it. * marks the point of attachment. Octanoyl = CCCCCCCC(=O)*; Dap = NC[C@H](N)C(=O)O; AEEA = NCCOCCOCC(=O)O; Aoc = NCCCCCCCC(=O)O
MEASUREMENT LABEL: v IL-8 inhibition (%)
Value expressed in %; do not type the unit.

Example results:
{"MOLECULE": "CC[C@H](C)[C@@H]1NC(=O)[C@H](Cc2c[nH]c3ccccc23)NC(=O)[C@H](CCCCN)NC(=O)[C@H](CCC(N)=O)NC(=O)[C@H](CCCCN)NC(=O)[C@@H]2CCCN2C(=O)[C@H](CC(=O)O)NC(=O)[C@H](CC(C)C)NC(=O)[C@@H](NC(C)=O)CSSC[C@@H](C(N)=O)NC(=O)[C@@H](CCC(N)=O)NC1=O [Example 24] (Ac-CLDPKQKWI[dQ]C-NH2; disulfide 1-11)", "NUMERIC VALUE": 33.8}
{"MOLECULE": "CCCCCCCC(=O)NCCCC[C@H](NC(=O)COCCOCCNC(=O)[C@H]1CSSC[C@@H](N)C(=O)N[C@H](CCC(N)=O)C(=O)N[C@H]([C@H](C)CC)C(=O)N[C@H](Cc2c[nH]c3ccccc23)C(=O)N[C@H](CCCCN)C(=O)N[C@H](CCC(N)=O)C(=O)N[C@H](CCCCN)C(=O)N2CCC[C@@H]2C(=O)N[C@H](CC(=O)O)C(=O)N[C@H](CC(C)C)C(=O)N1)C(=O)O [Example 151] (H-[dC][dQ][dI][dW][dK][dQ][dK][dP][dD][dL][dC][AEEA]K(Octanoyl)-OH; disulfide 1-11)", "NUMERIC VALUE": 103.7}
{"MOLECULE": "CCCCCCCC(=O)N[C@@H](CN)C(=O)N[C@@H]1CSSC[C@H](C(N)=O)NC(=O)[C@@H](CC(C)C)NC(=O)[C@@H](CC(=O)O)NC(=O)[C@H]2CCCN2C(=O)[C@@H](CCCCN)NC(=O)[C@@H](CCC(N)=O)NC(=O)[C@@H](CCCCN)NC(=O)[C@@H](Cc2c[nH]c3ccccc23)NC(=O)[C@@H]([C@H](C)CC)NC(=O)[C@@H](CCC(N)=O)NC1=O [Example 160] (Octanoyl-[Dap][dC][dQ][dI][dW][dK][dQ][dK][dP][dD][dL][dC]-NH2; disulfide 2-12)", "NUMERIC VALUE": 100.2}
{"MOLECULE": "CC[C@H](C)[C@@H]1NC(=O)[C@H](Cc2c[nH]c3ccccc23)NC(=O)[C@H](CCCCN)NC(=O)[C@@H](NC(=O)[C@H](CCC(N)=O)NC(=O)[C@H](CCCCN)NC(=O)[C@@H]2CCCN2C(=O)[C@H](CC(=O)O)NC(=O)[C@@H](N)CC(C)C)CSSC[C@@H](C(N)=O)NC(=O)[C@H](CCC(N)=O)NC1=O [Example 12] (H-LDPKQCKWIQC-NH2; disulfide 6-11)", "NUMERIC VALUE": 94.8}

// assay IL-8, entry CC[C@@H](C)[C@H]1NC(=O)[C@@H](CCC(N)=O)NC(=O)[C@H](N)CSSC[C@H](C(=O)N[C@@H](C(=O)N[C@H](CCC(=O)O)C(=O)NCCCCCCCC(=O)O)C(C)C)NC(=O)[C@@H](CC(C)C)NC(=O)[C@@H](CC(=O)O)NC(=O)[C@H]2CCCN2C(=O)[C@@H](CCCCN)NC(=O)[C@@H](CCC(N)=O)NC(=O)[C@@H](CCCCN)NC(=O)[C@@H](Cc2c[nH]c3ccccc23)NC1=O [Example 141] (H-[dC][dQ][dI][dW][dK][dQ][dK][dP][dD][dL][dC][dV][dE][Aoc]-OH; disulfide 1-11) , v IL-8 inhibition (%) value = 27.5

Origin of values: patent US20110038885A1
